Each recorded value in this set is attributed to PubChem BioAssay (NCI).

In this section we review reported growth inhibition values for a set of compounds.
methodNotes: NCI Yeast Anticancer Drug Screen. Data for the cln2 rad14 strain (AID 165);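 further: 0% = growth equal to vehicle treated cultures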
details: S. cerevisiae cln2 rad14 strain, at 5.0 µM (retest, dose inferred, filed as 0.5), hits give high values
Compounds without any hit were thinned out: in the full panel of roughly 79,000, 15% have a hit.
Please state the figure in %; there is no need to write the unit.

**Query** State its growth inhibition: `CCCCNC(C)(C)COC(=O)/C=C/c1ccc(OCCCC)cc1`
**Result** 3

**Query** Provide measured growth inhibition value, entry: CC12CCCC1C1CC=C3CC(OC=O)CCC3(C)C1CC2 (stereo unspecified)
**Result** -37

**Query** Read off the recorded growth inhibition for `Fc1ccc(CN2COc3c(cc(Cl)c4cccnc34)C2)cc1`
**Result** -8

---

methodNotes: NCI Yeast Anticancer Drug Screen. Data for the bub3 strain (AID 167)
details: S. cerevisiae bub3 mutant strain, at 5.0 µM (retest, dose inferred, filed as 0.5)
About 79,000 compounds went through this panel and 15% of them were active in at least one assay; those are over-represented in the sample as a whole. Activity calls are given as the source filed them. No stated cut-off is given here; in the data, active means growth inhibition above about 70%; inactive means the rest.
Could you please pick one outcome from this set? T (active), F (inactive)

- molecule: "CC(NNC(=S)N(C)C1CCCCC1)c1cc2ccccc2cn1 (stereo unspecified)"
  assignedCategory: "T"
- molecule: "C/C=C(\\C)C(=O)O[C@@H]1CC(C)(C)CC2C3=CCC4[C@]56CC[C@](O)(OC5)C(C)(C)C6CC[C@@]4(C)C3(C)CC[C@]21C(=O)O (stereo partly specified)"
  assignedCategory: "T"

**Query** // outcome(item) with item = CCOC(=O)NC(c1ccc(C(NC(=O)OCC)P(=O)(O)NC23CC4CC(CC(C4)C2)C3)cc1)P(=O)(O)NC12CC3CC(CC(C3)C1)C2 (stereo unspecified)
**Result** F

**Query** Test call for this molecule, please: `O=C1c2ccccc2-c2ccccc2C(=O)C1(Br)Br`
**Result** F

**Query** Test call for this molecule, please: CN(C)CC1CCC/C(=C\c2ccc(Cl)cc2)C1=O (stereo unspecified)
**Result** F

**Query** Please share the test call associated with `N#Cc1c(Cl)nc2ccccc2c1N=[N+]=[N-]` .
**Result** F

**Query** Status in this test for CC(C)CCCCCCCCCCCCC(=O)NCC(=O)NC1C(C)OC(Nc2ncnc3nc[nH]c23)C(O)C1O (stereo unspecified) ?
**Result** F

**Query** Hello, I am checking results. What call was entered for `CC(C)N(C(=O)c1ccc(Cl)c(Cl)c1)C(C)C` ?
**Result** F

---

methodNotes: NCI Yeast Anticancer Drug Screen. Data for the mec2-1 strain (AID 157)
details: S. cerevisiae mec2-1 strain, at 50.0 µM (retest, dose inferred, filed as 5.0)
This is part of a sample that, as a whole, favours compounds with a hit. Of some 79,000 tested, about 15% had one in any assay. Activity calls are given as the source filed them. Cut-off read from the data, not from the text of the source: active = growth inhibition above about 70%; inactive = the rest.
// classify into active, inactive

See these solved cases before continuing.
- compound: "O=C(O)c1ccc(/C=C2\\COc3ccccc3C2=O)cc1"
  assignedCategory: "active"
- compound: "O=C(Nc1ccc(C(=O)c2ccccc2)cc1)Nc1ccc(Cl)c(Cl)c1"
  assignedCategory: "active"
- compound: "Cc1occc1C(=S)Nc1ccc(Cl)c(C(=O)OCC(C)C)c1"
  assignedCategory: "inactive"
- compound: "COC/C=N/Nc1ccc([N+](=O)[O-])cc1"
  assignedCategory: "active"
- compound: "CCC(c1ccc(O)c(C2CCCCC2)c1)C(CC)c1ccc(OC(=O)c2ccccc2)c(C2CCCCC2)c1 (stereo unspecified)"
  assignedCategory: "inactive"
- compound: "CCOC(=O)NC(NC(=O)OCC)C(=O)Nc1cccc2c(OC(=O)C(NC(=O)OCC)NC(=O)OCC)c(N=Nc3ccc(S(=O)(=O)Nc4nccs4)cc3)cc(N=Nc3ccc(S(=O)(=O)Nc4nccs4)cc3)c12 (tested in a mixture with another compound)"
  assignedCategory: "inactive"

**Query** What did this assay record as the result for `COc1ccc(/C=N/Nc2ccccc2)cc1` ?
**Result** active

**Query** Name the outcome recorded for `NNC(=O)c1c(SCc2ccccc2)nc2c3ccccc3ccn12` in the assay.
**Result** active

**Query** Name the outcome recorded for `CC1=C(C(=O)Nc2cc(O)ccc2O)C(c2cccc([N+](=O)[O-])c2)C(C(=O)Nc2cc(O)ccc2O)=C(C)N1` in the assay.
**Result** inactive

**Query** Given `O=C(c1cccc(Cl)c1)c1ccc2ccccc2c1C(=O)O` , state the outcome it received in this test.
**Result** inactive

**Query** Given `C[C@]12CC[C@H](O)C[C@@H]1CC[C@@H]1[C@@H]2C(=O)C[C@]2(C)C3=CC(=O)O[C@H]3C[C@@H]12` , state the outcome it received in this test.
**Result** active

---

Consider the following molecules and their measured growth inhibition readings.
methodNotes: NCI Yeast Anticancer Drug Screen. Data for the bub3 strain (AID 167)
details: S. cerevisiae bub3 mutant strain, at 50.0 µM, hits give high values
Description: Growth inhibition of yeast strains with defined genetic alterations is measured as a screen for potential anti-cancer activity. Selected strains with alterations in DNA damage repair or cell cycle control were exposed to compounds and growth inhibition was measured relative to vehicle treated controls. The strain used in this assay is bub3
About 79,000 compounds went through this panel and 15% of them were active in at least one assay; those are over-represented in the sample as a whole. Activity calls are given as the source filed them. Rule as the data show it: active = growth inhibition above about 70%; inactive = the rest.

Worked cases, growth inhibition given:
- molecule: "CCOC(=O)CCC(NC(=O)c1ccc(NC(OC)c2nc3cc(C(F)(F)F)ccc3nc2-c2ccccc2)cc1)C(=O)OCC (configuration not stated)"
  observed: "91.8% (active)"
- molecule: "CCNC(=S)NNC(=S)NNc1ccccc1"
  observed: "60.5% (inactive)"

For the next question, use this molecule.
**Query** Using the record for CC1=NC(C)=C(/C(C)=N/NC(=O)c2ccccc2O)C(C)/C1=C(/C)NNC(=O)c1ccccc1O (configuration not stated) , state its measured growth inhibition.
**Result** 82.8% (active)

---

methodNotes: NCI Yeast Anticancer Drug Screen. Data for the cln2 rad14 strain (AID 165);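 further: 0% = growth equal to vehicle treated cultures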
details: S. cerevisiae cln2 rad14 strain, at 50.0 µM (retest, dose inferred, filed as 5.0)
Compounds without any hit were thinned out: in the full panel of roughly 79,000, 15% have a hit. Activity calls are given as the source filed them. Rule as the data show it: active = growth inhibition above about 70%; inactive = the rest.
Respond only with the outcome that fits, drawn from class 1 (active), class 0 (inactive)

- compound: "O=C(c1ccccc1)C1OC1c1ccccc1Cl (stereo unspecified)"
  assignedCategory: "class 0"

**Query** What did this assay record as the result for `COC(=O)c1cc2c(c(C(=O)OC)c1O)C(=O)C=CC2=O` ?
**Result** class 1

**Query** Called result for `CCN(CC)C(=O)C1(OC(C)=O)CCCCC1`
**Result** class 0

**Query** Dear colleague, could you share the recorded outcome for `Cc1cc(SC#N)cc(C)c1O` when you have a moment?
**Result** class 0

**Query** Look up the recorded call for `CN(C)COC(=S)SCN(C)C` in this test.
**Result** class 1

**Query** Which outcome was entered for the compound `Cc1c(C)n(-c2ccccc2)c2nc(S(C)(=O)=O)nc(S(C)(=O)=O)c12` in this test?
**Result** class 1

---

methodNotes: NCI Yeast Anticancer Drug Screen. Data for the cln2 rad14 strain (AID 165);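 further: 0% = growth equal to vehicle treated cultures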
details: S. cerevisiae cln2 rad14 strain, at 5.0 µM (retest, dose inferred, filed as 0.5), hits give high values
Compounds without any hit were thinned out: in the full panel of roughly 79,000, 15% have a hit.
A collection of compounds and their measured growth inhibition
Numeric only. Scale: %

- substanceSmiles: "N#[N+]c1ccc2c(S(=O)(=O)Oc3ccc(C(=O)c4ccccc4)c(OS(=O)(=O)c4cccc5c([O-])c([N+]#N)ccc45)c3)cccc2c1[O-]"
  growth inhibition, %: 36

**Query** Complete the entry with growth inhibition for `CN(C)c1nc(=Nc2ccc(N=c3nc(N(C)C)ss3)cc2)ss1`
**Result** -4

**Query** Indicate its recorded growth inhibition; the compound in question is `[Cl][Pt+2]([Cl])([Cl])[Cl].[NH-]CC1(C[NH-])CCCC1`
**Result** 57

---

methodNotes: NCI Yeast Anticancer Drug Screen. Data for the mec2-1 strain (AID 157)
details: S. cerevisiae mec2-1 strain, at 50.0 µM, hits give high values
About 79,000 compounds went through this panel and 15% of them were active in at least one assay; those are over-represented in the sample as a whole. Active and inactive are the calls of the source. Rule as the data show it: active = growth inhibition above about 70%; inactive = the rest.
Below, each of the molecules is paired with its reported growth inhibition value.

Examples with answers:
- molecule: "CN=C(N)N/N=C(\\C)c1ccc2c(c1)Cc1cc(/C(C)=N/NC(N)=NC)ccc1-2"
  observed: "75.9% (active)"
- molecule: "Cc1nc(-n2nc(-c3ccccc3)cc2-c2ccccc2)sc1C(/C=C\\c1ccc([N+](=O)[O-])cc1)=N/NC(=S)NN"
  observed: "37.1% (inactive)"
- molecule: "C/C(=N\\NC(=S)N(C)CCN(C)C(=S)N/N=C(\\C)c1ccccn1)c1ccccn1"
  observed: "97.2% (active)"
- molecule: "CC(=O)Nc1ccc2c(c1)[nH]c(=O)c1cc(Cl)ccc12"
  observed: "-1.45% (inactive)"
- molecule: "C/C(=N/O)c1cc([N+](=O)[O-])c(O)cc1O"
  observed: "84.9% (active)"

With those in mind, consider the next molecule.
**Query** For the molecule `C[N+](C)(C)CCC(=O)c1ccco1` , give its measured growth inhibition value.
**Result** 99.7% (active)
